# System: SN12C renal
# ASSAY: NCI-60 one-dose screen, 48 h (100 = growth as untreated, 0 = no growth, -100 = all killed)
# TEST CONTEXT: 10 µM unless noted
This is part of a sample that, as a whole, favours compounds with a hit. Of some 83,000 tested, about 20% had one in any assay.
MEASURE: growth (%)

> print(dat)
                                    compound  test.system  reported
 1  COc1ccc(/C(=C\c2cc(OC)c(OC)c(OC)c2)C(=O)Nc2nc3ccc(Cl)cc3s2)cc1  SN12C renal      96.9
 2  CCCOC(=O)C1c2cc3c(cc2CC(C)C1C(=O)OCCC)OCO3 (stereo not given)  SN12C renal       104
 3  C=C(CN1CC=CCC1)[C@@H]1CC[C@]2(C(=O)OC)CC[C@]3(C)[C@H](CC[C@@H]4[C@@]5(C)CC[C@H](OC(C)=O)C(C)(C)[C@@H]5CC[C@]43C)[C@@H]12  SN12C renal      92.8
 4  Cc1nc2ccc(Nc3nc(Cl)nc(N4CCOCC4)n3)cc2n1Cc1ccccc1  SN12C renal      78.2
 5          NC(N)=N/N=C\c1cccc(OCc2ccccc2)c1  SN12C renal      86.6
 6    O=C(Nc1ccc2[nH]c3ccccc3c2c1)c1ccccc1Cl  SN12C renal      61.3
 7  CC1=C(C(=O)Nc2ccc(F)cc2)C(c2ccccc2)C2=C(CC(C)(C)CC2=O)N1 (stereo not given)  SN12C renal      70.1
 8  CC(C)c1ccc(Cn2ccc3c4c(N)nc(NC5CC5)nc4ccc32)cc1  SN12C renal     -91.5
 9  C/C(=C\C(=N\N=C(N)N)c1ccc(Cl)cc1)c1ccc(Cl)cc1  SN12C renal     -73.8
10             CCNC(=S)N(Cc1ccccc1)Cc1ccccc1  SN12C renal       103

* * *

# Tested on: SF-295 CNS
# ASSAY: NCI-60 one-dose screen, 48 h (100 = growth as untreated, 0 = no growth, -100 = all killed)
# TEST CONTEXT: 10 µM unless noted
This is part of a sample that, as a whole, favours compounds with a hit. Of some 83,000 tested, about 20% had one in any assay.
MEASURE: growth (%)

> print(dat)
                                   compound  measure  reported
1  COc1cc(C2CC(c3ccc(Cl)cc3)=NN2C=O)ccc1OS(=O)(=O)c1ccc(C)cc1 (stereo not drawn)   growth      87.4
2             O=[N+]([O-])c1ccccc1CN1CCCCC1   growth       112
3  COc1cccc2nc(Nc3cccc(NC(=O)c4cc(N5CCOCC5)cc(C(F)(F)F)c4)c3)ccc12   growth      58.4

* * *

# System: RPMI-8226 leukemia
# ASSAY: NCI-60 one-dose screen, 48 h
# TEST CONTEXT: 10 µM unless noted
This is part of a sample that, as a whole, favours compounds with a hit. Of some 83,000 tested, about 20% had one in any assay. Calls of active or inactive are those of the source. How the source made its calls: active means growth percent below 10; inactive means the rest.
Possible outcomes: active, inactive

MOLECULE	LABEL
Cc1cc(C)c2c(NC(=O)Nc3ccc(Cl)c(Cl)c3)n[nH]c2n1	inactive
CN(C)c1ccc(/C=N/Nc2nnc3n2N=C(c2ccc(Cl)cc2)CS3)cc1	inactive
C=C1NC(=O)C(C(C)CC)NC(=O)C2CSCC(NC(=O)CCC(=O)O)C(=O)NC(Cc3ccccc3)C(=O)NC(C)C(=O)NC(CC(C)CC)C(=O)NC(C(=O)NC(Cc3ccccc3)C(=O)N3CCCC3C(=O)N2)C(C)OC(=O)C(CO)NC(=O)C(C(O)COC)N(C)C(=O)C(C(C)C)NC(=O)C(CC(C)CC)NC1=O (stereo not drawn)	inactive
COc1ccc2c(c1)CCCC21C(=O)Nc2ccccc21 (stereo not drawn)	inactive
CCOC(=O)C1=C(C)NC(SCc2nnc(-c3ccc(Cl)cc3)o2)=NC1c1ccc(Br)cc1 (stereo not drawn)	inactive
COc1cc(NC(C)CCCN)c2ncccc2c1Oc1ccc(Cl)cc1 (stereo not drawn)	inactive
COC(=O)c1ccc(NC(N)=NCCC(C)(C)c2ccc(C(F)(F)F)cc2)nc1	active
CC1=NN(c2cccc(S(N)(=O)=O)c2)C(=O)C1	inactive
